# Test system: H23
# PROTOCOL_NOTES: Cancer cell growth inhibition (CellTiter-Glo, 72 hours)
# Format: cell-based
# EXPERIMENTAL_CONDITIONS: Homo sapiens, NCI-H23, H23 cells, read-out: GI50s (μM) H23
Measured IC50 values are reported for all entries that follow.

The following molecules have reported results that may help.
[[record]]
molecule = "Cc1ncsc1-c1ccc(CNC(=O)[C@@H]2C[C@@H](O)CN2C(=O)[C@@H](NC(=O)CCOCCOCCN2CCN(c3ccc(Nc4ncc5ccc(-c6cccc(NS(C)(=O)=O)c6)n5n4)cc3)CC2)C(C)(C)C)cc1"
assayed_target = "H23"
quantity_measured = "IC50"
result = "1 to 10 µM"

[[record]]
molecule = "CS(=O)(=O)N1CCCn2cc(cn2)Nc2ncc3ccc(n3n2)-c2ccc(cc2)OCC1"
assayed_target = "H23"
quantity_measured = "IC50"
result = "1 to 10 µM"

[[record]]
molecule = "O=C1COCCOc2ccc(cc2)-c2ccc3cnc(nn23)Nc2cnn(c2)CCCN1"
assayed_target = "H23"
quantity_measured = "IC50"
result = "1 to 10 µM"

[[record]]
molecule = "O=C1CCCCCCOc2ccc(cc2F)-c2ccc3cnc(nn23)Nc2ccc(cc2)OCCCN1"
assayed_target = "H23"
quantity_measured = "IC50"
result = "≥ 10 µM"

[[record]]
molecule = "O=C1CCCCOc2ccc(cc2)-c2ccc3cnc(nn23)Nc2cnn(c2)CCCN1"
assayed_target = "H23"
quantity_measured = "IC50"
result = "< 1 µM"


Qu. Report the value of IC50 obtained on H23 for CS(=O)(=O)Nc1cccc(-c2ccc3cnc(Nc4ccc(N5CCN(CCCCCCCOc6cccc7c6C(=O)N(C6CCC(=O)NC6=O)C7=O)CC5)cc4)nn23)c1 (stereo not drawn) .
Ans. ≥ 10 µM

Qu. Report the value of IC50 obtained on H23 for "CC(=O)N1CCCn2cc(cn2)Nc2ncc3ccc(n3n2)-c2ccc(cc2)OCC1" .
Ans. 1 to 10 µM

Qu. Report the value of IC50 obtained on H23 for "O=C1CCCCCCOc2ccc(cc2)-c2ccc3cnc(nn23)Nc2ccc(cc2)OCCCN1" .
Ans. 1 to 10 µM

Qu. Report the value of IC50 obtained on H23 for "O=C1CCCCOc2ccc(cc2)-c2ccc3cnc(nn23)Nc2cnn(c2)C2CCN1CC2" .
Ans. 1 to 10 µM

Qu. Report the value of IC50 obtained on H23 for "O=C1CCCCCCOc2ccc(cc2)-c2ccc3cnc(nn23)Nc2cnn(c2)C2CCN(CCCN1)CC2" .
Ans. 1 to 10 µM

Qu. Report the value of IC50 obtained on H23 for "O=C1CCCCOc2ccc(cc2)-c2ccc3cnc(nn23)Nc2ccc(cc2)OCCCN1" .
Ans. ≥ 10 µM

Qu. Report the value of IC50 obtained on H23 for "COc1cc2ccc1Nc1ncc3ccc(n3n1)-c1ccc(cc1)OCCOCC(=O)NCCCO2" .
Ans. ≥ 10 µM

---

# Test system: colo205
# PROTOCOL_NOTES: Cancer cell growth inhibition (CellTiter-Glo, 72 hours)
# Format: cell-based
# EXPERIMENTAL_CONDITIONS: Homo sapiens, COLO 205, colo205 cells, read-out: GI50s (μM) colo205
Measured IC50 values are reported for all entries that follow.

[[record]]
molecule = "O=C1CCCCCCOc2ccc(cc2)-c2ccc3cnc(nn23)Nc2ccc(cc2)N2CCN1CC2"
result = "1 to 10 µM"


Qu. Report the value of IC50 obtained on colo205 for "O=C1CCCCOc2ccc(cc2)-c2ccc3cnc(nn23)Nc2ccc(cc2)OCCCN1" .
Ans. ≥ 10 µM

Qu. Report the value of IC50 obtained on colo205 for "O=C1COCCOc2ccc(cc2)-c2ccc3cnc(nn23)Nc2ccc(cc2)OCCCN1" .
Ans. 1 to 10 µM

Qu. Report the value of IC50 obtained on colo205 for "O=C1CCCCCCOc2ccc(cc2)-c2ccc3cnc(nn23)Nc2cnn(c2)CCCN1" .
Ans. ≥ 10 µM
